Target: T1, human ACTH 1-39 (human)
T1 peptide: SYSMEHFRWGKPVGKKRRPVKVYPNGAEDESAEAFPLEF
Experiment: cell-based or functional assay
readout type: MC5R IC50 (nM)
Value expressed in nM; do not type the unit.

Here are 4 binders together with their reported answers.
input: Field request: MC5R IC50 | item: Ab2 (antibody, human IgG1, kappa, N297A, V domains shown, rabbit/human chimeric antibody, made in HEK-293) VH: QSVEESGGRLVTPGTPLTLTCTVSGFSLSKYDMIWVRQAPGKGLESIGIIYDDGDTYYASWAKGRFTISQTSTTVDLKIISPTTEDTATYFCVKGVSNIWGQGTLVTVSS VL: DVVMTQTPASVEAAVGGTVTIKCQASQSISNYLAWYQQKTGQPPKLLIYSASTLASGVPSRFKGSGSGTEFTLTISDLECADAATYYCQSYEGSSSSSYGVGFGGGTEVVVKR
output: 1100

input: Also check Ab11 (antibody, human IgG1, kappa, N297A, V domains shown, rabbit/human chimeric antibody, made in HEK-293) VH: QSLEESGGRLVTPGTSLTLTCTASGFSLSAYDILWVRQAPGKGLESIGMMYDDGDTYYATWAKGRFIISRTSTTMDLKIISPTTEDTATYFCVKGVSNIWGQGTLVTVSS VL: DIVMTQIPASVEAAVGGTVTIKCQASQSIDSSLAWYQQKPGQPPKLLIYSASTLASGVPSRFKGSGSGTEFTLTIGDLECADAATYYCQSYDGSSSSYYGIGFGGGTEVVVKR
output: 4200

input: Please do the same for Ab5 (antibody, human IgG1, kappa, N297A, V domains shown, rabbit/human chimeric antibody, made in HEK-293) VH: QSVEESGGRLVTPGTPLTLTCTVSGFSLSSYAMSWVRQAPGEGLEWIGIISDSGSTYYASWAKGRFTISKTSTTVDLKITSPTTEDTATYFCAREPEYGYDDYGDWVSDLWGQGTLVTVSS VL: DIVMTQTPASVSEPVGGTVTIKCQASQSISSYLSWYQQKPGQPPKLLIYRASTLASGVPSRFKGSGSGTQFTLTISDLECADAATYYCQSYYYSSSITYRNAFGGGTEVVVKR as well.
output: 1000

input: # iterate: Ab4 (antibody, human IgG1, kappa, N297A, V domains shown, rabbit/human chimeric antibody, made in HEK-293) VH: QSVEESGGRLVTPGTPLTLTYTVSGFSLSKHDMIWVRQAPGKGLESIGIIYDDGDTYYANWAKGRFTISKTSTTVDLKIISPTTEDTATYFCVKGVSNIWGPGTLVTVSS VL: DVVMTQTPASVEAAVGGTVTIKCRASQSISVYLAWYQQKAGQPPKLLIYQASKLASGVPSRFKGSGSGTEFTLTISDLECADAATYYCQSYDGSSSSSYGVGFGGGTEVVVKR
output: 1300

Proceed to the following item.
input: Could you tell me which MC5R IC50 is on file for Ab6 (antibody, human IgG1, kappa, N297A, V domains shown, rabbit/human chimeric antibody, made in HEK-293) VH: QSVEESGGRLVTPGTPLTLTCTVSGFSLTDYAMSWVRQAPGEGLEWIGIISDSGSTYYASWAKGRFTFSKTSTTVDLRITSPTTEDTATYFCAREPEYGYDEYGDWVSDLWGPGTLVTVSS VL: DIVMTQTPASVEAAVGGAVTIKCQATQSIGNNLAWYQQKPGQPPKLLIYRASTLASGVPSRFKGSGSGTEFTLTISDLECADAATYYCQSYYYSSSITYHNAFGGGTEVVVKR ?
output: 1000
